# test target: T1, IL10Rα/IL2Rγ receptor (human) (UniProt Q13651)
# T1 sequence (looked up) 1: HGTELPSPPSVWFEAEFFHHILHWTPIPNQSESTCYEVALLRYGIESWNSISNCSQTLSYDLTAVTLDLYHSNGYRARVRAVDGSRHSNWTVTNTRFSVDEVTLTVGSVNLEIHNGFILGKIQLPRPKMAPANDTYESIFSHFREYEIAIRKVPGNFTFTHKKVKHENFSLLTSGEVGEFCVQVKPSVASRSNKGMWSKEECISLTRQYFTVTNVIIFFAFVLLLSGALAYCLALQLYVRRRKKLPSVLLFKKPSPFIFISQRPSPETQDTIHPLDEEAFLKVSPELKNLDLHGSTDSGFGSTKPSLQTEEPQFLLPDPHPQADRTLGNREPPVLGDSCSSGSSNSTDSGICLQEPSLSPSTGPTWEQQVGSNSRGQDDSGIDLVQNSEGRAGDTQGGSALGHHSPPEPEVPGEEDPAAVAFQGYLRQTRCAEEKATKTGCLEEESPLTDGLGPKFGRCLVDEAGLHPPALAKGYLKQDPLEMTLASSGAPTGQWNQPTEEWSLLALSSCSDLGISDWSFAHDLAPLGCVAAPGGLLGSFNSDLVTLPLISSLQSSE
# T1 sequence (looked up) 2: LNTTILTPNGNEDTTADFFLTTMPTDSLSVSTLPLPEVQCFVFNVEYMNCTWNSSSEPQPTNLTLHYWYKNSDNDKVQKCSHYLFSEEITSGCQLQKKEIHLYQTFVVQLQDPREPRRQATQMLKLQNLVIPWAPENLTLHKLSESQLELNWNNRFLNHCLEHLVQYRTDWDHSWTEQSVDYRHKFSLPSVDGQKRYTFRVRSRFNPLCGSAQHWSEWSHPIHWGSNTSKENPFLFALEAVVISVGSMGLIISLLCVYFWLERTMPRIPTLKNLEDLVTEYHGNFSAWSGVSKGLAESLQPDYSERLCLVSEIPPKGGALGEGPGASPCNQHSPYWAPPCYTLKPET
# method description: cell-based or functional assay
measured metric: IL-9 secretion, CD8 T cells, at 0.01 µM
Give the value; after it, write the unit.

Example results:
-- ask Report IL-9 secretion, CD8 T cells, at 0.01 µM for hIL10Ra_VHH14 - hIL2Rg_VHH19, linker GS, tag his (bispecific antibody, not shown: small tags and cut ends) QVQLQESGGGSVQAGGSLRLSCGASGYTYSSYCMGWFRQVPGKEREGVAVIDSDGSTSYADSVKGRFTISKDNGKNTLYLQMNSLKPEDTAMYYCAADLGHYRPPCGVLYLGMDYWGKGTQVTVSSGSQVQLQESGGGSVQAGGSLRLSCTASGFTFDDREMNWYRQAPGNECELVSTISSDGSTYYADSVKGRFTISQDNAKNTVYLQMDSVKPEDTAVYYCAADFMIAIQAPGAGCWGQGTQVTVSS please.
-- reply 1070 pg/mL

-- ask Report IL-9 secretion, CD8 T cells, at 0.01 µM for hIL10Ra_VHH14 - hIL2Rg_VHH19, linker GGGSGGGS, tag his (bispecific antibody, not shown: small tags and cut ends) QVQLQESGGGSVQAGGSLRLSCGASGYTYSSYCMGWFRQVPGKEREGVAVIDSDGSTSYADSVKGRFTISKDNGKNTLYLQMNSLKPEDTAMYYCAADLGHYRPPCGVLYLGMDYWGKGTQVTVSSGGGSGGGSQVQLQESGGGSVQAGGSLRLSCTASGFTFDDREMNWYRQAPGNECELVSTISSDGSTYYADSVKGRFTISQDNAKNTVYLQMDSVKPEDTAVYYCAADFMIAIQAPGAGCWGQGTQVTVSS please.
-- reply 1010 pg/mL

-- ask Report IL-9 secretion, CD8 T cells, at 0.01 µM for hIL10Ra_VHH14 - hIL2Rg_VHH19, linker GGGS, tag his (bispecific antibody, not shown: small tags and cut ends) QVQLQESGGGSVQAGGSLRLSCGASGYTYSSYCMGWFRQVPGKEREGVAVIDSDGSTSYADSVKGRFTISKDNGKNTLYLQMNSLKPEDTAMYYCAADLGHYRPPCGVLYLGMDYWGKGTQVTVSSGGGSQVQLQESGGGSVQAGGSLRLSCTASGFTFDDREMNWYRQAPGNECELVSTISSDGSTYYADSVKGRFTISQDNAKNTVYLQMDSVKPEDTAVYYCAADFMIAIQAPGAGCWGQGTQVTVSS please.
-- reply 1120 pg/mL

Would you kindly look at the next entry?
-- ask Report IL-9 secretion, CD8 T cells, at 0.01 µM for hIL10Ra_VHH14 - hIL2Rg_VHH19, linker GGSGGS, tag his (bispecific antibody, not shown: small tags and cut ends) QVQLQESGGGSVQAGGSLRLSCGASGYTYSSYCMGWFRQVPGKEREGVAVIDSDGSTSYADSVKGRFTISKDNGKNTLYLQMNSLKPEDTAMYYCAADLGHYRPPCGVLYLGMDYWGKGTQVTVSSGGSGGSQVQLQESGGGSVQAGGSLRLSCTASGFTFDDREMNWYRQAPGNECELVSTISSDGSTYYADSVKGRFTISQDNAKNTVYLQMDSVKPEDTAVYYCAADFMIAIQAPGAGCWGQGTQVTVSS please.
-- reply 1140 pg/mL
